Data provenance: patent US10294229B2

Exercise: state measured Papp at 2 h, 3 µM for each of the compounds provided.
# measurementProtocol: Caco-2 Permeability Assay
# Format: in vitro ADME
# cond: human, Caco-2, test compound 3 μM
# Method: Caco-2 Permeability Assay Thirteen to 27 days prior to assay, Caco-2 cells were seeded onto collagen-coated polycarbonate filter membranes in 24-well transwell plates at a density of 1.45×10^5 cells/cm^2, approximately 4.8×10^4 cells per well. […] The cells were evaluated for tight junction formation just prior to assay. […] The samples were subsequently analyzed by LC-MS/MS to determine concentrations of compound.
Give bare numbers, in ×10⁻⁶ cm/s.

Guide cases for Papp at 2 h, 3 µM, answers given:
CC(C)Nc1cc(-n2ncc3cc(C#N)cnc32)ncc1-c1cn(C[C@H](O)c2ccccc2)nn1 | 6.9
CC(C)(O)CCc1cn(-c2cnc(-n3ncc4cc(C#N)cnc43)cc2N[C@H]2CC[C@@H](F)C2)nn1 | 3.6
CC(C)Nc1cc(-n2ncc3cc(C#N)cnc32)ncc1-n1cc(C2CCN(C(=O)C(F)(F)F)CC2)nn1 | 24.8
CC(C)Nc1cc(-n2ccc3cncnc32)ncc1-c1cn(CCN2CCOCC2)nn1 | 33
CC(C)Nc1cc(-n2ncc3cc(C#N)cnc32)ncc1-c1cc([C@@H]2COCCN2)on1 | 26.3
CC(C)Nc1cc(-n2ncc3cc(C#N)cnc32)ncc1-c1cn(CCCCO)nn1 | 2.9

Shifting focus to the compound that follows.
Query: # query: Papp at 2 h, 3 µM of entry COC(=O)NC1CCC(c2cc(-c3cnc(-n4ncc5cc(C#N)cnc54)cc3NC(C)C)on2)CC1 (centres unmarked)
Reply: 26.9

###

# measurementProtocol: Caco-2 Permeability Assay
# Type: in vitro ADME
# cond: human, Caco-2, test compound 3 μM
resultType: Papp at 2 h, 3 µM (×10⁻⁶ cm/s)
Numbers only, in ×10⁻⁶ cm/s.

Some molecules with known Papp at 2 h, 3 µM results, for comparison:
CC(C)Nc1cc(-n2ncc3cc(C#N)cnc32)ncc1-n1cc(CCCO)nn1 | 4.4
CC(=O)Cc1cn(-c2cnc(-n3ncc4cc(C#N)cnc43)cc2NC(C)C)nn1 | 9.2
CC(C)Nc1cc(-n2ncc3cc(C#N)cnc32)ncc1-c1cn(CCc2cccnc2)nn1 | 5
CC(C)Nc1cc(-n2ncc3cc(C#N)cnc32)ncc1-c1cn([C@H](C)[C@H](C)O)nn1 (single isomer, unassigned) | 7.1
CC(C)Nc1cc(-n2ncc3cc(C#N)cnc32)ncc1-c1nnc(C(=O)N2CCOCC2)o1 | 1.7
CCCc1cn(-c2cnc(-n3ncc4cc(C#N)cnc43)cc2NC(C)C)nn1 | 7.8

Query molecule follows.
Query: Quick one: Papp at 2 h, 3 µM for `CCNc1cc(-n2ncc3cc(C#N)cnc32)ncc1-n1cc(CCC(C)(C)O)nn1` ?
Reply: 6.7

###

Assign log10 EC50 to each entry below.
# Tested on: Human whole blood stimulated with a TLR2 agonist (lipoteichoic acid), IL-6 levels
# measurementProtocol: IRAK4 Whole Blood Assay
# Format: cell-based
# cond: lipoteichoic acid 10 μg/mL
# Experimental: Human whole blood containing the anti-coagulant ACD-A was plated in 384-well plate (25 μL/well) and incubated with compounds for 60 minutes at 37° C. in a 5% CO2 incubator. The blood was stimulated with a TLR2 agonist, 10 μg/mL final concentration of lipoteichoic acid (Invivogen, San Diego, Calif.) in 25 μL RPMI (Gibco) for 5 hours in a 5% CO2 incubator. […] Supernatants were harvested and analyzed for IL-6 levels by Flow Cytometry beads assay (BD Biosciences, San Jose, Calif.).
Please note: log10 values; quantity EC50; unit nM.

CC(C)Nc1cc(-n2ncc3cc(C#N)cnc32)ncc1-c1cc(CC(C)(C)O)on1 | 2.40

Please report log10 EC50 for every entry that follows.
1. CC(C)Nc1cc(-n2ncc3cc(C#N)cnc32)ncc1-c1cn(CC2CC2(F)F)nn1 (single isomer, unassigned) [Example 31]
2. CC(C)Nc1cc(-n2ncc3cc(C#N)cnc32)ncc1-c1cc(C2CCCCN2)no1 (stereo not shown)
3. CC(=O)N1CCCC(n2cc(-c3cnc(-n4ncc5cc(C#N)cnc54)cc3NC(C)C)nn2)C1 (stereo not shown)

Reply:
[3.29, 2.48, 2.40]

# batch: return log10 EC50 for each of the 2 molecules below
1. CC(F)Cc1cn(-c2cnc(-n3ncc4cc(C#N)cnc43)cc2NC2CC2)nn1 (stereo not shown) [Example 353]
2. CC(F)Cc1cn(-c2cnc(-n3ncc4cc(C#N)cnc43)cc2NC2CC2)nn1 (stereo not shown) [Example 354]

Reply:
1: 2.63; 2: 2.18

Query: For the record CCC(C)(O)Cn1cc(-c2cnc(-n3ncc4cc(C#N)cnc43)cc2NC(C)C)nn1 (single isomer, unassigned) [Example 92] , what value of log10 EC50 is listed for Human whole blood stimulated with a TLR2 agonist (lipoteichoic acid), IL-6 levels?
Reply: 3.05

###

# system: IRAK4 (Homo sapiens (Human), UniProt Q9NWZ3)
# Sequence (Q9NWZ3 whole entry, species assumed): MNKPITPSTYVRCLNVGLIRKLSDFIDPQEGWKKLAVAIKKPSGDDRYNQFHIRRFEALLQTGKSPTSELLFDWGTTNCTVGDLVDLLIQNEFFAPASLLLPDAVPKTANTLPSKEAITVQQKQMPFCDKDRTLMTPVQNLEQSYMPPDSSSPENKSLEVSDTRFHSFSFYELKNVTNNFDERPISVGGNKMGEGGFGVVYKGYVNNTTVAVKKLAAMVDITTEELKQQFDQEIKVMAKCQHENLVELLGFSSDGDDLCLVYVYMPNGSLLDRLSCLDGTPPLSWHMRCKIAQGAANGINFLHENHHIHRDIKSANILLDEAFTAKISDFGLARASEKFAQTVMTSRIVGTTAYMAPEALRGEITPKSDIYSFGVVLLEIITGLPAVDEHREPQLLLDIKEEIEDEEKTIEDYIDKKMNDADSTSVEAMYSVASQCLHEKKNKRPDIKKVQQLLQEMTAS
Assign labels as follows, please: y for IC50 below 10 nM; n for IC50 equal to or exceeding 10 nM.

CC(C)Nc1cc(-n2ncc3cc(C#N)cnc32)ncc1-n1ccc(CC#N)n1 | n
CC(C)Nc1cc(-n2ncc3cc(C#N)cnc32)ncc1-c1cn([C@@H]2CCN(C(=O)C(C)(C)C)C[C@H]2O)nn1 (single isomer, unassigned) [Example 206] | y
CC(C)Nc1cc(-n2ncc3cc(C#N)cnc32)ncc1-c1cc(C2COCCN2)no1 (single isomer, unassigned) [Example 400, Isomer 2] | y

Kindly consider the entry below.
Query: IC50 strictly < 10 nM for this compound? CCC(C)(O)c1cn(-c2cnc(-n3ncc4cc(C#N)cnc43)cc2NC(C)C)nn1 (stereo not drawn)
Reply: n

###

# Test system: Caco-2 cells
# measurementProtocol: Caco-2 Permeability Assay
# Format: in vitro ADME
# cond: test compound 3 μM
resultType: Caco-2 Permeability (nm/s)
One number for each entry, in nm/s.

# count of solved cases: 8
CC(=O)N1CCCC(n2cc(-c3cnc(-n4ncc5cc(C#N)cnc54)cc3NC(C)C)nn2)C1 (stereo not drawn) | 35
CCC(C)(O)Cn1cc(-c2cnc(-n3ncc4cc(C#N)cnc43)cc2NC(C)C)nn1 (single isomer, unassigned) | 115
CCNc1cc(-n2ncc3cc(C#N)cnc32)ncc1C1=NOC(CCC(C)(C)O)C1 (stereo not drawn) | 317
CC(C)Nc1cc(-n2ncc3cc(C#N)cnc32)ncc1-c1cn([C@@H]2CCN(S(C)(=O)=O)C[C@H]2F)nn1 (single isomer, unassigned) | 32
CC(C)Nc1cc(-n2ncc3cc(C#N)cnc32)ncc1-c1cn(C2CCOC2)nn1 (stereo not drawn) | 104
CC(C)Nc1cc(-n2ncc3cc(C#N)cnc32)ncc1-c1cn(CC2CC2(F)F)nn1 (single isomer, unassigned) | 162
CC(C)Nc1cc(-n2ncc3cc(C#N)cnc32)ncc1-c1cc(C2CCCCN2)no1 (stereo not drawn) | 139
CC(=O)N1CCC[C@@H](c2cc(-c3cnc(-n4ncc5cc(C#N)cnc54)cc3NC(C)C)on2)C1 | 302

Query: Name the recorded Caco-2 Permeability for `CC(C)Nc1cc(-n2ncc3cc(C#N)cnc32)ncc1-c1cc(CC(C)(C)O)on1` .
Reply: 310

###

# system: IRAK4 (Homo sapiens (Human))
# measurementProtocol: IRAK4 Inhibition Assay
# Type: biochemical
# cond: ATP 500 μM; IRAK4 0.6 nM
resultType: IC50
Include the unit right after the number.

Examples with their reported IC50 follow.
CC(C)(O)CCc1cn(-c2cnc(-n3ncc4cc(C#N)cnc43)cc2NCCC(F)(F)F)nn1 | 7 nM
COC(=O)N1CCC[C@@H](c2cc(-c3cnc(-n4ncc5cc(C#N)cnc54)cc3NC(C)C)on2)C1 | 2 nM
CC(C)Nc1cc(-n2ncc3cc(C#N)cnc32)ncc1-c1cn([C@H]2CC[C@H](N)CC2)nn1 | 3 nM
CC(C)Nc1cc(-n2ncc3cc(C#N)cnc32)ncc1-c1cnn(C(F)F)c1 | 146 nM

Now consider the entry below.
Query: Field request: IC50 | item: CC(C)Nc1cc(-n2cnc3cc(C#N)cnc32)ncc1-c1cn(CC(O)Cc2ccccc2)nn1 (single isomer, unassigned)
Reply: 26 nM

###

The following compounds each carry a recorded pIC50 for IRAK4 (Homo sapiens (Human), UniProt Q9NWZ3).
Answers are plain numbers, as −log10 of the molar value.

Consider the following illustrative entries.
CC(C)Nc1cc(-n2ncc3cc(C#N)cnc32)ncc1-c1cn([C@H]2CCN(C(=O)c3ccccn3)C[C@H]2O)nn1 | 8.00
CC(=O)Cc1cn(-c2cnc(-n3ncc4cc(C#N)cnc43)cc2NC(C)C)nn1 | 8.00
CC(C)(O)CCc1cn(-c2cnc(-n3ncc4cc(C#N)cnc43)cc2NC2(C)CC2)nn1 | 8.70

With those in mind, consider the next compound.
Query: Tell me the measured pIC50 of CC(F)Cc1cn(-c2cnc(-n3ncc4cc(C#N)cnc43)cc2NC(C)C)nn1 (single isomer, unassigned) [Example 289] , please.
Reply: 8.22
